# Test system: K562 CRISPRi cells
# Procedure details: Constant region variant library pooled growth screen, K562
# Type: cell-based, human
# Test parameters: sgRNA constant region variants; activity relative to the original, un-modified constant region cr995
Property name: Mean relative activity
Please reply with the value in numeric form only.

Here are 2 molecules together with their reported answers.
cr694 (nucleic acid, listed as DNA, chemistry not fully specified) guide: GTTTAAGAGCTAAGCTGGAAACAGCATAGCAAGTTTAAATAAGGCTAGTCCGGTATCAACTTGTAAAAGTGGCACCGAGTCGGTGCT :: 0.8963
cr686 (nucleic acid, listed as DNA, chemistry not fully specified) guide: GTTTAAGAGCTAAGCTGGAAACAGCATAGCAACTTTAAATAAGGCTAGTCCGTTATCAACTTGAAAAAGTGGCACCGAGACGGTGCT :: −0.004019

// sample cr330 (nucleic acid, listed as DNA, chemistry not fully specified) guide: GTTTAAGAGCTAAGCTGGAAACAGCATAGCAAGTTTAAATAAGGATATTCCGTTATCAACTTGAAAAAGTGCCACCGAGTCGGTGGT , its Mean relative activity was 0.5762

Mean relative activity measured on cr845 (nucleic acid, listed as DNA, chemistry not fully specified) guide: GTTTAAGAGCTAAGCTGGAAACAGCATAGCAAGGTTAAATAAAGCTAGTCTGTTATCAACTTGAAAAAGTGGCACCGAGTCGGTGCT = 0.004644
